- measured target: NHE-1 (Homo sapiens)
- Construct: endogenous in cells
- method notes: Evaluation of NHE-1 Inhibition (pHi) in HT-29 cells
- reported conditions: BCECF dye, 50% inhibition of the intracellular pH recovery, read-out: NHE1 HT29 pHi IC50
measurement name: IC50 (nM)
Give the quantity in nM, number only.

{"compound": "Cc1cc(C2CCN(C(=O)c3cccc(C(F)(F)F)c3)CC2)c(S(C)(=O)=O)cc1C(=O)NC(=N)N", "units symbol": "nM", "IC50": 51}
{"compound": "COCC(=O)N1CCC(c2cc(C)c(C(=O)NC(=N)N)cc2S(C)(=O)=O)CC1", "units symbol": "nM", "IC50": 15}
{"compound": "CNS(=O)(=O)c1ccc(C(=O)N2CCC(c3ccc(C(=O)NC(=N)N)cc3C(F)(F)F)CC2)cc1", "units symbol": "nM", "IC50": 51}
{"compound": "N=C(N)NC(=O)c1ccc(C2CCN(C(=O)[C@@H]3CCC(=O)N3)CC2)c(C(F)(F)F)c1", "units symbol": "nM", "IC50": 11}
{"compound": "N=C(N)NC(=O)c1ccc(C2CCN(C(=O)C3CCNC3)CC2)c(C(F)(F)F)c1 (stereo not drawn)", "units symbol": "nM", "IC50": 5}
{"compound": "CS(=O)(=O)c1ccccc1Oc1cc(C(=O)N2CCC(c3ccc(C(=O)NC(=N)N)cc3C(F)(F)F)CC2)ccn1", "units symbol": "nM", "IC50": 76}
{"compound": "N=C(N)NC(=O)c1ccc(C2CCN(C(=O)CN)CC2)c(C(F)(F)F)c1", "units symbol": "nM", "IC50": 4}
{"compound": "CN(C)c1ccc(C(=O)N2CCC(c3ccc(C(=O)NC(=N)N)cc3C(F)(F)F)CC2)cc1", "units symbol": "nM", "IC50": 180}

# ---- query compound ----
Given CS(=O)(=O)c1ccccc1C(=O)N1CC=C(c2ccc(C(=O)NC(=N)N)cc2C(F)(F)F)CC1 , state its recorded IC50.
73

* * *

- measured target: NHE-1 (Homo sapiens, UniProt P19634)
- Construct: endogenous in cells
- Sequence (P19634 whole entry): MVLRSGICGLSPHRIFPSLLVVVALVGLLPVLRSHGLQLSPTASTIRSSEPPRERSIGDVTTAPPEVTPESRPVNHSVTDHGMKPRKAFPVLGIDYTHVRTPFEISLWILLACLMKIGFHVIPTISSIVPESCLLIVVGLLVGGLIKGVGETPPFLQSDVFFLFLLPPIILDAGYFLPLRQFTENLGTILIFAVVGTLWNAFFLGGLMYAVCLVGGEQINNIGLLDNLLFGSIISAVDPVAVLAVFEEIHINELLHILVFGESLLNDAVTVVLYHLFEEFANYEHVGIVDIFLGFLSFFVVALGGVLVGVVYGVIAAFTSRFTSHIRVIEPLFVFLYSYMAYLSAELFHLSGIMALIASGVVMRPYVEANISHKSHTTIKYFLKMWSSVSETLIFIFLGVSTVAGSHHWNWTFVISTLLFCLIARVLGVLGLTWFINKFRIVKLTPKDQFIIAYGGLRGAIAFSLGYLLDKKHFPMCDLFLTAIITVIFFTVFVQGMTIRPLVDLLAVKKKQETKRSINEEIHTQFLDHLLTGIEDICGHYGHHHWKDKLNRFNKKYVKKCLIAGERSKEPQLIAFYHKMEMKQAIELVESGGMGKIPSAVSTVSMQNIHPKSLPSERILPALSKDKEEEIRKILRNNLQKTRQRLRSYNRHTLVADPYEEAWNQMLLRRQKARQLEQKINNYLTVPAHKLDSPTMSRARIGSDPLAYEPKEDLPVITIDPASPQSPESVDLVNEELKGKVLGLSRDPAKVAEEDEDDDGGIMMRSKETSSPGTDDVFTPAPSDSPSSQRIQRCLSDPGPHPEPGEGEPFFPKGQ
- method notes: Evaluation of NHE-1 Inhibition (pHi) in HT-29 cells
- reported conditions: BCECF dye, 50% inhibition of the intracellular pH recovery, read-out: NHE1 HT29 pHi IC50
The entries below come with measured IC50 values attached.
# number only, unit µM dropped from output

{"smiles data": "N=C(N)NC(=O)c1ccc([C@H]2CCN(C(=O)c3ccco3)C2)c(C(F)(F)F)c1", "measured target": "NHE-1 (Homo sapiens, UniProt P19634)", "IC50 (µM)": 0.028}
{"smiles data": "CS(=O)(=O)c1cc(C(=O)NC(=N)N)ccc1C1CCN(C(=O)c2cccc(C(F)(F)F)c2)CC1", "measured target": "NHE-1 (Homo sapiens, UniProt P19634)", "IC50 (µM)": 0.054}
{"smiles data": "Cc1cc(C2CCN(C(=O)C(C)(C)O)CC2)c(C(F)(F)F)cc1C(=O)NC(=N)N", "measured target": "NHE-1 (Homo sapiens, UniProt P19634)", "IC50 (µM)": 0.016}
{"smiles data": "N=C(N)NC(=O)c1ccc(C2CCN(C(N)=O)CC2)c(C(F)(F)F)c1", "measured target": "NHE-1 (Homo sapiens, UniProt P19634)", "IC50 (µM)": 0.006}

--- query ---
For the molecule shown here, COc1cc(C2CCN(C(C)=O)CC2)c(C(F)(F)F)cc1C(=O)NC(=N)N , give the reported IC50.
0.014
